B1: LINE1-mini (parent)
chain: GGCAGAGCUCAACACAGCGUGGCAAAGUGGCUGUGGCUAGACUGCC

- Variants of: B1
- assay.name: self-cleavage, relative activity (ratio to wild type); higher = more cleavage; in vitro, sequencing; the parent is a self-cleaving ribozyme
Short version: self-cleavage at least 0.3 is Met, less is Not met.

Input: Please check the record A24C A25G and state if its self-cleavage is at or above 0.3.
Output: Met

Input: Please check the record G2U U38C and state if its self-cleavage is at or above 0.3.
Output: Not met

Input: Please check the record A12G U34A and state if its self-cleavage is at or above 0.3.
Output: Not met

Input: Please check the record C3G U20G and state if its self-cleavage is at or above 0.3.
Output: Met

Input: Please check the record G2A A11U and state if its self-cleavage is at or above 0.3.
Output: Not met

Input: Please check the record A6C U28A and state if its self-cleavage is at or above 0.3.
Output: Met

Input: Please check the record G40U C42G and state if its self-cleavage is at or above 0.3.
Output: Not met

Input: Please check the record G1U G7U and state if its self-cleavage is at or above 0.3.
Output: Not met

Input: Please check the record G2A U9G and state if its self-cleavage is at or above 0.3.
Output: Not met

Input: Please check the record A25G G30U and state if its self-cleavage is at or above 0.3.
Output: Met

Input: Please check the record U34C G36C and state if its self-cleavage is at or above 0.3.
Output: Not met
